Target: PI3K beta (Homo sapiens, UniProt P42338)
Construct: for the full-length p110-b subunit are generated and fused by overlapping PCR; p85(iSH2) fusion partner (see partner chain) (N); His tag (C); Tn5 (Trichoplusia ni) or TiniPro insect cells
Sequence (P42338 with tags, fused parts or gaps limits assumed): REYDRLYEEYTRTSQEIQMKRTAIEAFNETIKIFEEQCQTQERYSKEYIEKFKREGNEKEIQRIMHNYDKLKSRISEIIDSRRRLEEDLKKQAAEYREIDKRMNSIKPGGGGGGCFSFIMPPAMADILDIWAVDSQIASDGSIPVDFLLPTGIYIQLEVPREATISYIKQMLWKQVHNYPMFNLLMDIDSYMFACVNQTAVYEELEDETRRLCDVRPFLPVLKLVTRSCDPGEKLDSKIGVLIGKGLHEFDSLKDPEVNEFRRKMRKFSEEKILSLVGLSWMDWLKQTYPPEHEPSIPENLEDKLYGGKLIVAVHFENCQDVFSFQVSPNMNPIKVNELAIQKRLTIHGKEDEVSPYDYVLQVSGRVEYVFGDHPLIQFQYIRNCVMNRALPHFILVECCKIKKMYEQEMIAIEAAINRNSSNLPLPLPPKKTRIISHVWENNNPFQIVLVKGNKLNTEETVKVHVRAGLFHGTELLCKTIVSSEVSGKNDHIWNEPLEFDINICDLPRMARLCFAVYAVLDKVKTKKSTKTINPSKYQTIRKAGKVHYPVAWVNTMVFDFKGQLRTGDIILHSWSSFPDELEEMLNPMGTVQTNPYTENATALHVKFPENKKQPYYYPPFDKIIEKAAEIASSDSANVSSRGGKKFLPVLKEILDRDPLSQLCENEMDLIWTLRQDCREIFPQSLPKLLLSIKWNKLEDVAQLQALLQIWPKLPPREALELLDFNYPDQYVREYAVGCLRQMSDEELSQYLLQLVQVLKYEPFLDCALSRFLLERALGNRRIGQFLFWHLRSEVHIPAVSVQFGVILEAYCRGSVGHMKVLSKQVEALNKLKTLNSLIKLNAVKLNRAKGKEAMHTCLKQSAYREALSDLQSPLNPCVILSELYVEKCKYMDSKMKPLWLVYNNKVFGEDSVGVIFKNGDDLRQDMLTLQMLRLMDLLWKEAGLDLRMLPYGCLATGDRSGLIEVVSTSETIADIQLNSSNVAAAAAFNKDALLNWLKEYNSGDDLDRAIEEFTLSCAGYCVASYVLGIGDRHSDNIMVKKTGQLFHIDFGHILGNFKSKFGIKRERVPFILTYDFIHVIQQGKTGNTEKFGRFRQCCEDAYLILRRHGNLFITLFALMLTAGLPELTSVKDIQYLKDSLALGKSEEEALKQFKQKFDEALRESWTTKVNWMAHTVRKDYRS
Assay: PI3K beta kinase assay (Kinase-Glo luminescence)
pIC50 values, listed per item
As a rule, pIC50 stands for the negative log10 of the concentration, concentration in M.

Below: 2 compounds and their reported pIC50.
CCOc1cncc(-c2ccc3ncc4c(c3c2)n(-c2c(C)nn(C)c2C)c(=O)n4C)c1; 6.64
Cc1nn(C)cc1-n1c(=O)n(C)c2cnc3ccc(-c4ccc(CO)nc4)cc3c21; 6.77

Please report the recorded pIC50 for COc1ccc(-c2ccc3ncc4c(c3c2)n(-c2cc(C)nn2C)c(=O)n4C)cn1 . 6.74

Quick check: pIC50 of COC(=O)c1ccc(-c2ccc3ncc4c(c3c2)n(-c2cn(C)nc2C)c(=O)n4C)cn1 ? 6.85

====

Test system: PKB Ser473 phosphorylation in Rat1-myr-HA-p110 alpha cells
Test: Reverse protein array assay, PKB Ser473 phosphorylation in Rat1-myr-p110 alpha cells
Type: cell-based
Conditions: 0.5 h, pAkt Ser473, 30 minutes compound incubation, read-out: p-PKB IC50
metric: pIC50
Interpret pIC50 as the negative base-10 log of the concentration measured in mol/L.

Answered cases to consult:
COc1ncc(-c2ccc3ncc4c(c3c2)n(-c2cn(C)nc2C)c(=O)n4C)cc1N(C)C(C)=O [Example 62]; 6.33
COc1ccc(-c2ccc3ncc4[nH]c(=O)n(-c5cn(C)nc5C)c4c3c2)cn1 [Example 109]; 7.26
COCc1cc(-c2ccc3ncc4c(c3c2)n(-c2cn(C(C)C)nc2C)c(=O)n4C)cnc1N [Example 168.1]; 7.70
CCn1cc(-n2c(=O)n(C)c3cnc4ccc(-c5cnc(OC)nc5)cc4c32)c(C)n1 [Example 17.1]; 7.14
Cc1nn(C)cc1-n1c(=O)n(C)c2cnc3ccc(-c4ccc(N(C)C)nc4)cc3c21 [Example 4.5]; 7.66

Could you share which pIC50 value was measured for Cc1nn(C(C)C)cc1-n1c(=O)n(C)c2cnc3ccc(-c4cncc(C(O)(CF)CF)c4)cc3c21 [Example 219] ? 7.28

Entry COc1cc(-c2ccc3ncc4c(c3c2)n(-c2cn(C(C)C)nc2C)c(=O)n4C)cnc1CO [Example 194.1] : reported pIC50 = ? 7.36

====

Item-by-item account of pIC50
Biological target: PI3K delta (Homo sapiens, UniProt O00329)
Construct: for the full-length p110-d subunit are generated and fused by overlapping PCR; p85(iSH2) fusion partner (see partner chain) (N); His tag (C); Tn5 (Trichoplusia ni) or TiniPro insect cells
Sequence (O00329 with tags, fused parts or gaps limits assumed): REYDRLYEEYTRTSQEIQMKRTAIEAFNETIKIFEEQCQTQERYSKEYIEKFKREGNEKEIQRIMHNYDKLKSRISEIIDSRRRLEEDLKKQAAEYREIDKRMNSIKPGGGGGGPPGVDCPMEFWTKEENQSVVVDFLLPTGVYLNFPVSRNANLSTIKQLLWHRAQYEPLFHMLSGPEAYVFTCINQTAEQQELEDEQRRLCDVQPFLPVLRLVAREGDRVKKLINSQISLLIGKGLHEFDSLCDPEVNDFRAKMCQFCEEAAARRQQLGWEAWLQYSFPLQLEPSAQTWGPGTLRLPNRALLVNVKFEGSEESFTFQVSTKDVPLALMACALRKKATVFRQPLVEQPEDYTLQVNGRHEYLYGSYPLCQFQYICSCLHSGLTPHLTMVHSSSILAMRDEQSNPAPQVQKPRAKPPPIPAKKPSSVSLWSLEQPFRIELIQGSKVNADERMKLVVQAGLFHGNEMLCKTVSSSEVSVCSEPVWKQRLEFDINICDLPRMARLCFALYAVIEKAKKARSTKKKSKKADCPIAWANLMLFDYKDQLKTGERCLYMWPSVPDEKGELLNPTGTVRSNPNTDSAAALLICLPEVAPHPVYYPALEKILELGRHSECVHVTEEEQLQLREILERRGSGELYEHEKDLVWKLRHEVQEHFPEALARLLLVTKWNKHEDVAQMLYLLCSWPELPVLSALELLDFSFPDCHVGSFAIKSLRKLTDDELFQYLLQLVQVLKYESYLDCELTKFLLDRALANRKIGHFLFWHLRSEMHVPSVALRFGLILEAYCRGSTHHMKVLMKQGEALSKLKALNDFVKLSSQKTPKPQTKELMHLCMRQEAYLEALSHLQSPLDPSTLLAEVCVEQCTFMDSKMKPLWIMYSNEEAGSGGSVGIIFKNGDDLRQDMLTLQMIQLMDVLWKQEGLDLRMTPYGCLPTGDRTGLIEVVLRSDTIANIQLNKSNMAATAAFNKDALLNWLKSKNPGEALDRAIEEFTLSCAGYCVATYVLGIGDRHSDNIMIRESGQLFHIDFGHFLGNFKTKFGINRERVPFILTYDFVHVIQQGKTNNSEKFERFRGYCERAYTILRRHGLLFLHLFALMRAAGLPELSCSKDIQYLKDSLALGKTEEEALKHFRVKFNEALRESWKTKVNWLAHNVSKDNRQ
Experiment: PI3K delta kinase assay (Kinase-Glo luminescence)
As a rule, pIC50 stands for the negative log10 of the concentration, concentration in M.

Cc1nn(C)cc1-n1c(=O)n(C)c2cnc3ccc(-c4cncc(N5CCOCC5)c4)cc3c21 [Example 175.1]; 7.15
COc1ccc(-c2ccc3ncc4[nH]c(=O)n(-c5cn(C)nc5C)c4c3c2)cn1 [Example 109]; 7.72
COc1cc(-c2ccc3ncc4c(c3c2)n(-c2c(C)nn(C)c2C)c(=O)n4C)ccc1O [Example 31]; 7.52
CCNc1cc(-c2ccc3ncc4c(c3c2)n(-c2cn(C)nc2C)c(=O)n4C)cnc1C [Example 87.1]; 8.00

Entry under review: CCNc1cc(-c2ccc3ncc4c(c3c2)n(-c2c(C)nn(C)c2C)c(=O)n4C)cnc1CO [Example 155.4] . Reported pIC50? 7.96

Form field: reported pIC50 of Cc1nn(C)cc1-n1c(=O)n(C)c2cnc3ccc(-c4ccc(NCCO)nc4)cc3c21 [Example 21.2] 7.74

Which pIC50 value is on record for CCCOc1ccc(-c2ccc3ncc4c(c3c2)n(-c2cn(C)nc2C)c(=O)n4C)cn1 [Example 55] ? 6.88

What measured pIC50 goes with CNc1ncc(-c2ccc3ncc4c(c3c2)n(-c2cn(C(C)C)nc2C)c(=O)n4C)cc1CO [Example 171] ? 7.85

Returns the measured pIC50 for the input compound. Input: CCNc1cc(-c2ccc3ncc4c(c3c2)n(-c2cn(C)nc2C)c(=O)n4C)cnc1CC [Example 161] 8.10

Item Cc1nn(C)cc1-n1c(=O)n(C)c2cnc3ccc(-c4cccc(S(=O)(=O)N(C)C)c4)cc3c21 [Example 53.1] has what recorded pIC50? 7.92

Which pIC50 value belongs to Cc1cc(-n2c(=O)n(C)c3cnc4ccc(-c5cncc(N6CCOCC6)c5)cc4c32)n(C)n1 [Example 175.2] ? 6.63

Quick one: pIC50 of CCOc1ccc(-c2ccc3ncc4[nH]c(=O)n(-c5cn(CC(=O)N6CCN(C)CC6)nc5C)c4c3c2)cn1 [Example 133] ? 6.03

Would you mind telling me what pIC50 value was observed for COc1ccc(-c2ccc3ncc4c(c3n2)n(-c2cn(C)nc2C)c(=O)n4C)cc1OC [Example 250] ? 7.77

What does the record list as pIC50 for CNc1ncc(-c2ccc3ncc4c(c3c2)n(-c2c(C)nn(C)c2C)c(=O)n4C)cc1COC [Example 248.5] ? 7.85

Which measured pIC50 value corresponds to Cc1ncc(-c2ccc3ncc4c(c3c2)n(-c2cn(C)nc2C)c(=O)n4C)cc1O [Example 185.1] ? 8.05

Dear colleague, I am looking for the recorded pIC50 of the following compound: Cc1nn(C)cc1-n1c(=O)n(C)c2cnc3ccc(-c4cccc(S(C)(=O)=O)c4)cc3c21 [Example 40] 7.64
